# TARGET_OR_TEST_SYSTEM: T1, human CD3 on T cells (Jurkat cells; human peripheral blood CD4+ and CD8+ T-cells) (human, UniProt P07766 23-207)
# T1 construct: whole, on cells; also called CD4T; CD4 + T
# MEASUREMENT_NOTES: flow cytometry on Jurkat cells
MEASURED_PROPERTY: affinity (FACS)
Quote the value and follow it with the unit of measurement.

Input aCD3-hVH9/VL1 (antibody, human IgG4, V domains shown, also called humanized anti-CD3 antibody hVH9/VL1) VH: EVQLVESGGGLVQPGGSLRLSCAASGFTFNTYAMNWVRKAPGKGLEWVGRIRSKYNNYATYYADSVKDRFTISRDDSKNSLYLQMNSLKTEDTAVYYCVRHGNFGNSYVSWFAYWGQGTLVTVSS VL: QAVVTQEPSLTVSPGGTVTLTCRSSTGAVTTSNYANWVQQKPGQAPRGLIGGTNKRAPWTPARFSGSLLGGKAALTLSGAQPEDEAEYYCALWYSNLWVFGGGTKLTVL , output reported affinity (FACS).
7 nM

The reported numbers originate from patent US20250346685A1.
